Experiment: DPPH radical scavenging activity of sample and control solutions
Format: biochemical
Details: 8.28 mg/ml; 0.2 mmol/L DPPH, 30 min, 517 nm; n = 3
EXPERIMENTAL READOUT: Scavenging activity (%)
One number for each entry, in %.

Guide cases for Scavenging activity, answers given:
compound="COc1c(O)cc2c(c1O)C1OC(COC(=O)CCSCCC(=O)OCC3OC4c5c(cc(O)c(OC)c5O)C(=O)OC4C(O)C3O)C(O)C(O)C1OC2=O (stereo not shown)" recorded_result=82.56
compound=COc1c(O)cc2c(c1O)[C@@H]1O[C@H](CO)[C@@H](O)[C@H](O)[C@H]1OC2=O recorded_result=59.12
compound=O=C(O)CCSCCC(=O)O recorded_result=10.56

Next, consider the following compound.
Q) Reported Scavenging activity for O=C1O[C@H]([C@@H](O)CO)C(O)=C1O : what is it?
A) 98.92
